Reported values of Max % for individual entries
Molecular target: HEK cells stably transfected with tetracycline inducible hNR1 and hNR2A (Homo sapiens, UniProt Q05586+Q12879)
Construct: expressed in transfected cells; host or cells: HEK cells, stably transfected, tetracycline/doxycycline inducible
Sequence (Q12879 23-1464, other chains not shown): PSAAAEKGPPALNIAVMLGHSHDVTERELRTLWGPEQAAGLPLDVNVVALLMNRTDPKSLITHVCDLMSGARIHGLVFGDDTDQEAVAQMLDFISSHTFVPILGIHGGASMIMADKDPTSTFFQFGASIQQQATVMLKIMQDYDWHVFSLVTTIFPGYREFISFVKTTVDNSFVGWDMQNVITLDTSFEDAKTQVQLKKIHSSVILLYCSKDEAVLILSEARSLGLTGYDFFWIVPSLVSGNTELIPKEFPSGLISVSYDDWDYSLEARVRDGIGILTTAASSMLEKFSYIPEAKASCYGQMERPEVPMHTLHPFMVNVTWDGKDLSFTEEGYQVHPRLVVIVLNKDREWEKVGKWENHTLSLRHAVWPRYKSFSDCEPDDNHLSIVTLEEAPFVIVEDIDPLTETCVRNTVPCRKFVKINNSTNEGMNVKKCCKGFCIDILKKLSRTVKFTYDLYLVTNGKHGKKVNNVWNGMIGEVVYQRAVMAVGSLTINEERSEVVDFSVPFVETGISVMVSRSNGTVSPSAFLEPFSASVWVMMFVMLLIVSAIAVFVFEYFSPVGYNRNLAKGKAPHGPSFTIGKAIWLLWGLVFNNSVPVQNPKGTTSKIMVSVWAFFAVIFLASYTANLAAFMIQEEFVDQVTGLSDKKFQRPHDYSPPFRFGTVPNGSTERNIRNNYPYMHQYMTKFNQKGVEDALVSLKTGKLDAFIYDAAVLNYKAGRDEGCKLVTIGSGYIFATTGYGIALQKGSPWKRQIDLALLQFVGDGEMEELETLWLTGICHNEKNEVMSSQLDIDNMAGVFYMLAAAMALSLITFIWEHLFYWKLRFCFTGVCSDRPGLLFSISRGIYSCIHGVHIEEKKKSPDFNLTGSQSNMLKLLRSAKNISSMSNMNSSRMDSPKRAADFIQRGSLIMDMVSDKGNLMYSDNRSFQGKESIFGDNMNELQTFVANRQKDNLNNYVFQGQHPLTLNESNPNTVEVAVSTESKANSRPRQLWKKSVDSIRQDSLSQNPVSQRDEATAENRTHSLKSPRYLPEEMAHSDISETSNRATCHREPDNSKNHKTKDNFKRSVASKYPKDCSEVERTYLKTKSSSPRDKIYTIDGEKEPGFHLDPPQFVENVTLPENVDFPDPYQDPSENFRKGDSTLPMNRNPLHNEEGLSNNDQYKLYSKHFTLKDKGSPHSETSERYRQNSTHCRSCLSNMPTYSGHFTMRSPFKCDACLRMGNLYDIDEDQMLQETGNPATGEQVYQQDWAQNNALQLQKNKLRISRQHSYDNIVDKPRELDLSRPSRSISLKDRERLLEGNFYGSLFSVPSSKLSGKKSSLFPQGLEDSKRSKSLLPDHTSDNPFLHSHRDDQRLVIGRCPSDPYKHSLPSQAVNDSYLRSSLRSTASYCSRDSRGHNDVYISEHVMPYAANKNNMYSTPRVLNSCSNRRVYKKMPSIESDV
Assay: Assay 1: Cell-Based Assay, cytosolic calcium response to positive allosteric modulators (with 30 μM glycine and 300 nM L-glutamate, EC30)
Conditions: Table 2; responses scaled relative to 100 μM L-glutamate maximal response (100%) and 0 μM L-glutamate (0%)
Parameter measured: Max % (%)

Molecule | Unit text | Value reported
CCN(Cc1cc(=O)n2c(-c3cncc(OC)c3)c(C)sc2n1)c1ccc(F)cc1 [Example 5.58] | % | 120
Cc1sc2nc(COc3ccc(F)cc3)cc(=O)n2c1C(O)C(F)(F)F (stereo not shown) [Example 2.10] | % | 119
Cc1sc2nc(COc3ccc(F)cc3)cc(=O)n2c1C1CC1CO (single isomer, unassigned) [Example 4.2] | % | 137
Cc1sc2nc(COc3ccc(F)cc3)cc(=O)n2c1[C@@H]1C[C@@H]1CO (relative stereo) [Example 4.23] | % | 62.9
CCN(Cc1cc(=O)n2c(CN3CC(O)C3)c(C)sc2n1)c1ccc(F)cc1 [Example 10.10] | % | 132
CCN(Cc1cc(=O)n2c(-c3cncnc3)c(C3CC3)sc2n1)c1ccc(F)cc1 [Example 5.15] | % | 144
CCN(Cc1cc(=O)n2c3c(sc2n1)CCC3C(N)=O)c1ccc(F)cc1 (stereo not shown) [Example 8.11] | % | 154
Cc1cc(Cl)n(Cc2cc(=O)n3c([C@@H]4C[C@H]4CO)c(C)sc3n2)n1 (relative stereo) [Example 15.4] | % | 137
CC(=O)c1c(C)sc2nc(COc3ccc(F)cc3)cc(=O)n12 [Example 2.5] | % | 115
CCN(Cc1cc(=O)n2c(-c3ccco3)c(C)sc2n1)c1ccc(F)cc1 [Example 5.45] | % | 139
Cc1sc2nc(Cn3nc(C4CC4)cc3C(F)(F)F)cc(=O)n2c1[C@@H]1C[C@H]1CO (relative stereo) [Example 15.12] | % | 143
Cc1sc2nc(COc3ccc(F)cc3)cc(=O)n2c1C(=O)NC1CC1 [Example 1.15] | % | 55.1
Cc1sc2nc(COc3ccc(F)cc3)cc(=O)n2c1[C@@H]1C[C@H]1CC#N (relative stereo) [Example 4.26] | % | 98.8
CCN(Cc1cc(=O)n2cc(C)sc2n1)c1ccc(F)cc1 [Example 11.3] | % | 132
CCNC(=O)c1c(C)sc2nc(Cc3cc(C#N)ccc3C(F)(F)F)cc(=O)n12 [Example 21.40] | % | 61.6
CNC(=O)c1c(C)sc2nc(Cc3cccc(C(F)F)c3F)cc(=O)n12 [Example 21.23] | % | 107
Cc1sc2nc(Cn3nc(C(F)(F)F)cc3C(F)(F)F)cc(=O)n2c1-c1cncnc1 [Example 15.30] | % | 116
CCN(Cc1cc(=O)n2c(C3CCCC3)c(C)sc2n1)c1ccc(F)cc1 [Example 9.3] | % | 108
Cc1sc2nc(Cn3nc(C)c4cc(F)ccc43)cc(=O)n2c1C(C)O (stereo not shown) [Example 18.5] | % | 40.7
CCNC(=O)c1c(C(F)(F)F)sc2nc(Cn3nc(C4CC4)cc3C(F)(F)F)cc(=O)n12 [Example 16.4] | % | 130
CCNC(=O)c1c(C)sc2nc(Cc3cc(C#N)ccc3Cl)cc(=O)n12 [Example 21.6] | % | 114
CCN(Cc1cc(=O)n2c(-c3cnccn3)c(C)sc2n1)c1ccc(F)cc1 [Example 5.27] | % | 139
CC(=O)c1c(C)sc2nc(Cn3nc(C(F)(F)F)cc3C3CC3)cc(=O)n12 [Example 18.2] | % | 144
CNC(=O)c1c(C)sc2nc(Cc3ccc(F)c(Cl)c3)cc(=O)n12 [Example 21.47] | % | 103
CCN(Cc1cc(=O)n2c(-c3cncc(C(F)(F)F)c3)c(C)sc2n1)c1ccc(F)cc1 [Example 5.36] | % | 61.3
CC(C)c1sc2nc(Cn3nc(C(F)(F)F)cc3C3CC3)cc(=O)n2c1C1CC1CO (stereo not shown) [Example 15.24] | % | 138
CCN(Cc1cc(=O)n2c3c(sc2n1)CCC3C#N)c1ccc(F)cc1 (stereo not shown) [Example 8.12] | % | 161
CCN(Cc1cc(=O)n2c3c(sc2n1)CCC3CO)c1ccc(F)cc1 (single isomer, unassigned) [Example 8.3] | % | 150
